# assayExplanation: passive permeability, PAMPA, ADME assay (AID 1508612)
# experimentalContext: pH 7.4, 30.0 min, 50.0 µM
Decision: Papp beneath 300 ×10⁻⁶ cm/s gives yes (1); Papp meeting or exceeding 300 ×10⁻⁶ cm/s gives no (0).

molecule	labelClass
O=C(Nc1nc(-c2ccccn2)cs1)c1cccc(S(=O)(=O)N2CCOCC2)c1	no (0)
CC(C)N(CCC(=O)c1ccc2ccccc2c1)Cc1ccccc1	no (0)
CC1=C[C@@H](CNC(C)C)[C@H](C(C)C)C[C@H]1Cc1nnc(-c2ccncc2)o1	no (0)
Cc1ccnc(NC(=S)N2CCC(Nc3cccc(C(F)(F)F)c3)CC2)c1	no (0)
Cc1ccc(-n2nc3c(N4CCCC(C(=O)NCc5ccccc5C)C4)nnc(C)c3c2C)cc1 (stereo not given)	yes (1)
Cc1cccc(-c2csc(N3CCC(C(N)=O)CC3)n2)c1	no (0)
Cc1cccc(S(=O)(=O)c2cn(Cc3ccccc3)c3cc(N4CCCC(C)C4)c(F)cc3c2=O)c1 (stereo not given)	no (0)
Cc1ccc(-c2cc(C(=O)Nc3ccc(C#N)cc3)c3ccccc3n2)cc1C	yes (1)
N=c1c2c(ccn1CCc1ccccc1)Oc1ccc3ccccc3c1C2c1ccccc1 (stereo not given)	no (0)
Cc1ccc(S(=O)(=O)Nc2cnccc2C(=O)Nc2ccc(-n3cncn3)cc2)cc1	yes (1)
C#CCNC(=O)c1nc(-c2cccnc2)c2ccccn12	no (0)
Cc1cc(NS(=O)(=O)c2ccc3c(c2)CCC(=O)N3)ccc1F	no (0)
O=C(Nc1ccc2oc(-c3cccnc3)nc2c1)c1ccc(-c2ccccc2)o1	no (0)
CCOc1ccc(CCNC(=O)c2cc3ccccc3n2Cc2cc(C)cc(C)n2)cc1OCC	no (0)
COC(=O)c1ccc([C@H]2c3[nH]c4ccccc4c3C[C@H](C(=O)OC)N2C(=O)CCl)cc1	no (0)
O=C(O)c1ccc(N2C(=O)/C(=C/c3ccc(-c4ccc([N+](=O)[O-])cc4)o3)C=C2c2ccccc2)cc1	yes (1)
Cc1ccc(N2CCC(CNc3nc(-c4ccccc4C(C)C)ncc3C)CC2)cn1	no (0)
COc1ccccc1Nc1cnc2ccc(-c3ccc(OC)c(OC)c3)nn12	no (0)
COc1cccc(-n2ncc3c2CCCC3NC(=O)c2ccccn2)c1 (stereo not given)	no (0)
CC(C)(C)c1ccc(-c2nc(SCCCOc3ccccc3)n3[nH]c(=O)cc3n2)cc1	yes (1)
Cn1cnc2c(F)c(Nc3ccc(Br)cc3Cl)c(C(=O)NOCCO)cc21	yes (1)
COc1ccc(OC)c(-c2cc(C(=O)N3CCN(c4ncccn4)CC3)c3ccccc3n2)c1	no (0)
Cc1ccc(S(=O)(=O)Nc2cnccc2C(=O)Nc2nc(-c3ccccc3)cs2)cc1	no (0)
Nc1c(-c2ccccc2)cc[nH]c1=O	no (0)
CN(C)CCN1C(=O)c2cccc3cc(N)cc(c23)C1=O	no (0)
CCOC(=O)c1[nH]c(C)c(CCC(=O)N2CCN(c3cc(C)ccc3C)CC2)c1C	no (0)
Fc1ccc(CNc2ncnc3onc(-c4ccc(F)cc4)c23)cc1	no (0)
O=C(c1ccncc1)N1CCC2(CCCN(C(c3ccccc3)c3ccccc3)C2)CC1	no (0)
CC1=NN(c2ccc(C(=O)O)cc2)C(=O)/C1=C/c1ccc(-c2cc(C)c(C)cc2[N+](=O)[O-])o1	yes (1)
O=C(CNC12CC3CC(CC(C3)C1)C2)c1ccc(Cl)cc1	no (0)
Cc1cc(C)nc(NC(=S)N2CCN(c3cccc(C(F)(F)F)c3)CC2)c1	no (0)
O=C(O)Cn1c(C(=O)Nc2nc(-c3ccccc3Cl)cs2)cc2ccccc21	yes (1)
O=S(=O)(Nc1nccs1)c1ccc(NCc2cc(F)ccc2O)cc1	yes (1)
Cc1cccc(N2CCN(C(=O)c3ccc4c(c3)C(O)CCCCCN4C)CC2)c1 (stereo not given)	yes (1)
COc1ccc(-c2ccc3nc(-c4ccc(SC)cc4)oc3c2)c(OC)c1OC	yes (1)
O=C(C1CCN(c2nc(-c3ccc(Br)cc3)cs2)CC1)N1CCNCC1	no (0)
O=C1NC(=S)NC(=O)C1=Cc1cccn1-c1ccc(O)cc1	yes (1)
Cc1ccc2[nH]c(-c3ccccc3)cc(=O)c2c1	yes (1)
CCn1ncc(NC(=O)Cn2ncc3cc(-c4cccc(OC)c4)ccc32)n1	no (0)
